Experiment: NCI Yeast Anticancer Drug Screen. Data for the mec2-1 strain (AID 157)
Conditions: S. cerevisiae mec2-1 strain, at 50.0 µM, hits give high values
This is part of a sample that, as a whole, favours compounds with a hit. Of some 79,000 tested, about 15% had one in any assay. Where a SMILES comes first, the peptide text is derived from it. Bridges are numbered along the chain shown (N, C = ends). [ ]: non-standard residue; d: D form. NMeV = CN[CH](C(=O)O)C(C)C; Sar = CNCC(=O)O
Entries and their growth inhibition values follow.
Kindly answer with a numeric value in %, unit omitted.

For this compound ( CCn1nc(-c2ccccc2)c2c1N(C)c1ccccc1-n1c(-c3ccccc3)nnc1-2 ), measured growth inhibition is 99

For this compound ( CC(C)C1NC(=O)C(N)C(C)OC(=O)C(C(C)C)N(C)C(=O)CN(C)C(=O)C2CCCN2C1=O (centres undefined) (tested in a mixture with another compound) (H-TVP[Sar][NMeV]; ester 1-C; configuration not given here) ), measured growth inhibition is 92.2

For this compound ( Clc1nnc(Cl)s1 ), measured growth inhibition is 21.6

For this compound ( CCC(=O)Nc1ccc(NC(C)=O)cc1 ), measured growth inhibition is -6.9
